- Experimental System: biotinylated extracellular domain of the human GIP receptor (bioGIPR) (human) (UniProt P48546)
- Sequence (P48546 24-138 limits assumed): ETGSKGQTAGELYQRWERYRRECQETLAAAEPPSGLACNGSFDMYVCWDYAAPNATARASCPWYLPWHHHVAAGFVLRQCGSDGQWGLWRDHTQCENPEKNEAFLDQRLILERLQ
- Test Method Notes: SPR single cycle kinetics, bioGIPR captured on chip; category B: pKD 8.1-9.0
*1 amine or outer side, *2 acyl side, *3 side chain or, on linkers, in order; H or OH if unused. Bridges are numbered along the chain shown (N, C = ends). [ ]: non-standard residue; d: D form. The star is where a group is joined. Ttds = 1,13-diamino-4,7,10-trioxatridecan-succinamic acid, NCCCOCCOCCOCCCNC(=O)CCC(=O)*; DOTA = O=C(O)CN1CCN(CC(=O)O)CCN(CC(=O)*)CCN(CC(=O)O)CC1; 2Lut = 2,6-lutidylidene bridge between two thiols; Trp(5-Cl) = N[C@@H](Cc1c[nH]c2ccc(Cl)cc12)C(=O)O; Pyridine(2,6-diCH2) = c1cc(C[*:1])nc(C[*:2])c1; APAc = 4-amino-1-carboxymethylpiperidine; MeO10kDaPEGAc = polydisperse 10 kDa PEG; Pro(4S-NH2) = N[C@@H]1CN[C@H](C(=O)O)C1; mXylylene = c1cc(C[*:1])cc(C[*:2])c1; Hyp = O=C(O)[C@@H]1C[C@@H](O)CN1; Cysteamide = C(CS[*:3])N[*:1]; Suc = O=C(CCC(=O)[*:2])[*:1]; Api = NC1(C(=O)O)CCNCC1; Thp = NC1(C(=O)O)CCOCC1; Aib = CC(C)(N)C(=O)O
Measured Endpoint: pKD

INSERT INTO results (binder, readout_value) VALUES
  ('{DOTA-Ttds}-DW[Trp(5-Cl)][Pro(4S-NH2)](Ac)E[dL]C[Aib]LI[Cysteamide] (linker 7-11 via mXylylene) [DOTA-Ttds-Asp-Trp-5Clw-4Ap(Ac)-Glu-leu-[Cys(3MeBn)-Aib-Leu-Ile-AET]]', '8.1 to 9 pkd');

Request: I am curious: what pKD value has been reported for Ac-DW[Trp(5-Cl)][Hyp]H[dL]C[Thp]LIC-NH2 (linker 7-11 via Pyridine(2,6-diCH2); SMILES CC[C@H](C)[C@@H]1NC(=O)[C@H](CC(C)C)NC(=O)C2(CCOCC2)NC(=O)[C@@H](NC(=O)[C@@H](CC(C)C)NC(=O)[C@H](Cc2c[nH]cn2)NC(=O)[C@@H]2C[C@@H](O)CN2C(=O)[C@H](Cc2c[nH]c3ccc(Cl)cc23)NC(=O)[C@H](Cc2c[nH]c3ccccc23)NC(=O)[C@H](CC(=O)O)NC(C)=O)CSCc2cccc(n2)CSC[C@@H](C(N)=O)NC1=O) [Ac-Asp-Trp-5Clw-Hyp-His-leu-[Cys(2Lut)-Thp-Leu-Ile-Cys]-NH2] ?
Response: 8.1 to 9 pkd

Request: Next record, please: Suc-W[Trp(5-Cl)][Hyp]E[dL]C[Api](MeO10kDaPEGAc)LIC-{APAc-Lys(DOTA)-NH2} (linker 6-10 via 2Lut) [HO-Succinyl-Trp-5Clw-Hyp-Glu-leu-[Cys(2Lut)-Apc(MeO10kDaPEGAc)-Leu-Ile-Cys]-APAc-Lys(DOTA)-NH2]
Response: 8.1 to 9 pkd

Recorded values, source patent US20250296971A1.
